# System: Rattus norvegicus
# PROCEDURE DETAILS: Inhibition of pentagastrin-stimulated acid secretion in intraduodenally dosed perfused Ghosh Schild rat stomach
# Format: functional
# COND: intraduodenal
Field: ED50. Provide a value for each of the molecules that follow.
Give bare numbers, in µmol/kg.

{"columns": ["MOLECULE", "OBSERVED VALUE"],
 "data": [
  ["CNC(=O)c1cn2c(C)c(C)nc2c2c1CCC(c1ccccc1)O2 (racemic)", 0.6],
  ["Cc1ccccc1[C@@H]1CCc2c(C(=O)N(C)C)cn3c(C)c(C)nc3c2O1", 0.4],
  ["CON(C)C(=O)c1cn2c(C)c(C)nc2c2c1CC[C@@H](c1ccccc1)O2", 0.4],
  ["Cc1nc2c3c(c(C(=O)N(C)C)cn2c1C)CC[C@@H](c1ccccc1F)O3", 0.2],
  ["Cc1nc2c3c(c(C(=O)N(C)C)cn2c1C)CC[C@@H](c1ccccc1)O3", 0.22]
]}

Respectfully, I request ED50 for each entry included below.
1. Cc1nc2c3c(c(C(N)=O)cn2c1C)CCC(c1ccccc1)O3 (racemic)
2. Cc1nc2c3c(c(C(=O)Nc4ccccc4)cn2c1C)CCC(c1ccccc1)O3 (racemic)
3. Cc1nc2c3c(c(C(=O)N(C)C)cn2c1CO)CC[C@@H](c1ccccc1)O3
4. Cc1nc2c3c(c(C4=NCCO4)cn2c1C)CCC(c1ccccc1)O3 (racemic)
5. CON(C)C(=O)c1cn2c(C)c(C)nc2c2c1CCC(c1ccccc1)O2 (racemic)
6. Cc1nc2c3c(c(C(=O)N(C)C)cn2c1C)CC[C@@H](c1ccc(F)cc1)O3
7. CCc1c(C)nc2c3c(c(C(=O)N(C)C)cn12)CC[C@@H](c1ccccc1)O3
8. Cc1nc2c3c(c(C(N)=O)cn2c1C)CC[C@@H](c1ccccc1)O3

Response:
1. 0.8
2. 0.3
3. 5
4. 2
5. 0.4
6. 0.25
7. 1.2
8. 1

Respectfully, I request ED50 for each entry included below.
1. Cc1ccccc1[C@H]1CCc2c(C(=O)N(C)C)cn3c(C)c(C)nc3c2O1
2. Cc1nc2c3c(c(C(=O)N4CCC4)cn2c1C)CC[C@@H](c1ccccc1)O3

Response:
1. 1.3
2. 0.2

###

# PROCEDURE DETAILS: Inhibition of H+/K+ ATPase in hog gastric mucosa
# Format: tissue-based, Sus scrofa
Field: pIC50. Provide a value for each of the compounds that follow.
Numbers only.

Worked examples, 5 compounds total:
{"columns": ["COMPOUND", "OBSERVED VALUE"],
 "data": [
  ["Cc1nc2c3c(c(C(=O)N(C)C)cn2c1Br)CCC(c1ccccc1)O3 (racemic)", 4.9],
  ["Cc1nc2c3c(c(C(=O)N(C)C)cn2c1C)CC[C@@H](c1ccccc1)O3", 6.8],
  ["CCOC(=O)c1cn2c(C)c(C)nc2c2c1CCC(c1ccccc1)O2 (racemic)", 6],
  ["Cc1nc2c3c(c(C(=O)NC4CC4)cn2c1C)CC[C@@H](c1ccccc1)O3", 5.7],
  ["CNC(=O)c1cn2c(C)c(C)nc2c2c1CC[C@H](c1ccccc1)O2", 4.4]
]}

Respectfully, I request pIC50 for each entry included below.
1. Cc1nc2c3c(c(C(=O)N(C)C)cn2c1C)CC[C@@H](c1ccc(F)cc1)O3
2. Cc1nc2c3c(c(C(=O)N4CC4)cn2c1C)CCC(c1ccccc1)O3 (racemic)
3. Cc1ccccc1[C@H]1CCc2c(C(=O)N(C)C)cn3c(C)c(C)nc3c2O1
4. Cc1nc2c3c(c(C(=O)N(C)C)cn2c1C)CCC(c1cccs1)O3 (racemic)
5. Cc1nc2c3c(c(C(=O)N4CCC4)cn2c1C)CC[C@H](c1ccccc1)O3
6. CCc1c(C)nc2c3c(c(C(=O)N(C)C)cn12)CC[C@H](c1ccccc1)O3

Response:
[6.5, 5.3, 6.1, 5.3, 5.1, 4.4]

Respectfully, I request pIC50 for each entry included below.
1. Cc1nc2c3c(c(C(=O)N4CCC4)cn2c1C)CC[C@@H](c1ccccc1)O3
2. Cc1nc2c3c(c(C(=O)N(C)C)cn2c1C)CCC(c1ccccc1)O3 (racemic)
3. Cc1nc2c3c(c(C(=O)N(C)C)cn2c1C)CCC(c1ccc(F)cc1)O3 (racemic)
4. CON(C)C(=O)c1cn2c(C)c(C)nc2c2c1CC[C@H](c1ccccc1)O2
5. Cc1ccccc1C1CCc2c(C(=O)N(C)C)cn3c(C)c(C)nc3c2O1 (racemic)
6. Cc1nc2c3c(c(C(=O)N(C)C)cn2c1CN(C)C)CCC(c1ccccc1)O3 (racemic)

Response:
6.4
5.8
6.2
4.5
6.2
5

Respectfully, I request pIC50 for each entry included below.
1. Cc1nc2c3c(ccn2c1C)CCC(c1ccccc1)O3 (racemic)
2. CON(C)C(=O)c1cn2c(C)c(C)nc2c2c1CC[C@@H](c1ccccc1)O2

Response:
1: 6.9; 2: 5.6

###

Field: pIC50. Provide a value for each of the compounds that follow.
# PROCEDURE DETAILS: Inhibition of H+/K+ ATPase in hog gastric mucosa
# Type: tissue-based, Sus scrofa
Answers are plain numbers.

Worked examples, 2 compounds total:
{"columns": ["COMPOUND", "pIC50"],
 "data": [
  ["CC#CC(=O)c1c(C)nc2c3c(c(C(=O)N(C)C)cn12)CCC(c1ccccc1)O3 (racemic)", 6.2],
  ["Cc1nc2c3c(c(C(=O)N(C)C)cn2c1C)CC[C@H](c1ccccc1)O3", 5.4]
]}

Now look at this one.
Entry under test: Cc1nc2c3c(c(C(=O)N(C)C)cn2c1CO)CC[C@@H](c1ccccc1)O3 . Its pIC50 was 5.8

###

# System: Rattus norvegicus
# PROCEDURE DETAILS: Inhibition of pentagastrin-stimulated acid secretion in intraduodenally dosed perfused Ghosh Schild rat stomach
# Assay type: functional
# COND: intraduodenal
MEASUREMENT NAME: log10 ED50 (log10 of the value in µmol/kg)
A value of 2 here means ED50 of 100 in µmol/kg, since values are log10.

Worked examples, 8 compounds total:
{"columns": ["COMPOUND", "MEASUREMENT NAME", "OBSERVED VALUE"],
 "data": [
  ["Cc1nc2c3c(c(C(=O)NC4CC4)cn2c1C)CC[C@@H](c1ccccc1)O3", "log10 ED50", -0.60],
  ["Cc1nc2c3c(c(C(=O)N(C)C)cn2c1C)CCC(c1ccc(F)cc1)O3 (racemic)", "log10 ED50", -0.46],
  ["Cc1nc2c3c(c(C(=O)N(C)C)cn2c1C)CCC(c1ccccc1)O3 (racemic)", "log10 ED50", -0.30],
  ["Cc1nc2c3c(c(C(=O)N4CCCC4)cn2c1C)CC[C@@H](c1ccccc1)O3", "log10 ED50", 0.00],
  ["Cc1nc2c3c(c(C(=O)N(C)C)cn2c1Br)CCC(c1ccccc1)O3 (racemic)", "log10 ED50", 0.00],
  ["Cc1nc2c3c(c(C(=O)N(C)C)cn2c1C)CC[C@H](c1ccc(F)cc1)O3", "log10 ED50", 0.18],
  ["CC(=O)c1c(C)nc2c3c(c(C(=O)N(C)C)cn12)CC[C@@H](c1ccccc1)O3", "log10 ED50", -1.00],
  ["Cc1nc2c3c(c(C(=O)N(C)C)cn2c1Br)CC[C@@H](c1ccccc1)O3", "log10 ED50", 0.18]
]}

Now look at this one.
Entry under test: Cc1ccccc1C1CCc2c(C(=O)N(C)C)cn3c(C)c(C)nc3c2O1 (racemic) . Its log10 ED50 was -0.40

###

# PROCEDURE DETAILS: Inhibition of H+/K+ ATPase in hog gastric mucosa
# Assay type: tissue-based, Sus scrofa
Param threshold (5) applies to pIC50; output Condition met when value >= threshold, Condition not met when value < threshold.

Here's what some known entries look like.
{"columns": ["MOLECULE", "CLASS NAME"],
 "data": [
  ["Cc1nc2c3c(c(C(=O)N(C)C)cn2c1C)CC[C@H](c1ccc(F)cc1)O3", "Condition met"],
  ["Cc1nc2c3c(c(C(=O)NS(C)(=O)=O)cn2c1C)CCC(c1ccccc1)O3 (racemic)", "Condition not met"],
  ["Cc1nc2c3c(c(C(=O)N(C)C)cn2c1CO)CCC(c1ccccc1)O3 (racemic)", "Condition met"],
  ["Cc1nc2c3c(c(C(N)=O)cn2c1C)CCC(c1ccccc1)O3 (racemic)", "Condition met"]
]}

Query: Is it the case that Cc1nc2c3c(c(C(=O)N4CCNCC4)cn2c1C)CCC(c1ccccc1)O3 (racemic) has pIC50 reaching or exceeding 5?
Response: Condition met

Query: Is it the case that CNC(=O)c1cn2c(C)c(C)nc2c2c1CCC(c1ccccc1)O2 (racemic) has pIC50 reaching or exceeding 5?
Response: Condition met

Query: Is it the case that Cc1nc2c3c(c(C(=O)N4CCC4)cn2c1C)CCC(c1ccccc1)O3 (racemic) has pIC50 reaching or exceeding 5?
Response: Condition met

Query: Is it the case that Cc1nc2c3c(c(C(=O)N(C)C)cn2c1CO)CC[C@H](c1ccccc1)O3 has pIC50 reaching or exceeding 5?
Response: Condition not met

Value source: ChEMBL document CHEMBL1138298
